# system-tested: T1, Met1-linked diUb (M1-Ub2) (human, UniProt P0CG47 1-76; P0CG47 1-76)
# T1 construct: ubiquitin, human, first (distal) moiety of the linear diUb; ubiquitin, human, second (proximal) moiety, its Met1 joined to Gly76 of the first; Expressed from a human M1-Ub2 gene as one chain; source: E. coli Rosetta (DE3), pET26b, purified (heat step, ResourceS, Superdex75)
# experiment-description: SPR; GST-fused RNF168 domains captured by immobilised anti-GST antibody on CM5 chip (1000-1500 RU); Ub2 species injected 60 s at 10 µL per min; HBS-P (10 mM HEPES-Na pH 7.4, 150 mM NaCl, 0.05% P20), 25 °C; steady-state fit, 1:1 model
# cond: both partners purified
Listing: Kd of selected binders

[
  {
    "binder": "EETEINFTQKLIDLRHLLFERHKQEEQDRLLALQLQKEVDKEQM (domain or fragment, human, UniProt Q8IYW5 419-462, looked up, RNF168, human, residues 419-462 (UDM2ΔC) with E433R; source: E. coli Rosetta (DE3), purified (Glutathione Sepharose)) [GST-tagged RNF168 UDM2ΔC (E433R)]",
    "Kd": "214 µM"
  },
  {
    "binder": "LFERHKQEEQDRLLALQLQKEVDKEQM (domain or fragment, human, UniProt Q8IYW5 436-462, looked up, RNF168, human, residues 436-462 (MIU2); source: E. coli Rosetta (DE3), purified (Glutathione Sepharose)) [GST-tagged RNF168 MIU2 (residues 436-462)]",
    "Kd": "235 µM"
  },
  {
    "binder": "EETEINFTQKLIDLEHLLFERHKQEEQDRLLALQLQKEVDKEQM (domain or fragment, human, UniProt Q8IYW5 419-462, looked up, RNF168, human, residues 419-462 (UDM2ΔC); also called UAD–MIU2; source: E. coli Rosetta (DE3), purified (Glutathione Sepharose)) [GST-tagged RNF168 UDM2ΔC (residues 419-462)]",
    "Kd": "221 µM"
  },
  {
    "binder": "AEKRRRAMEEQLKSDEELARKLSIDINNFCEGSI (domain or fragment, human, UniProt Q8IYW5 161-194, looked up, RNF168, human, residues 161-194 (MIU1 alone); This construct is not in the methods' list of constructs; its limits stand in the results only; also called MIU1 alone; source: E. coli Rosetta (DE3), purified (Glutathione Sepharose)) [GST-tagged RNF168 MIU1 (residues 161-194)]",
    "Kd": "233 µM"
  },
  {
    "binder": "SEEEENKASEEYIQRLLAEEEEEEKRQAEKRRR (domain or fragment, human, UniProt Q8IYW5 134-166, looked up, Cloned into pCold-GST; source: E. coli Rosetta (DE3), purified (Glutathione Sepharose)) [GST-tagged RNF168 UMI (residues 134-166)]",
    "Kd": "306 µM"
  },
  {
    "binder": "GST-tagged RNF168 UDM2 (residues 419-487) (domain or fragment, human, UniProt Q8IYW5 419-487, looked up, RNF168, human, residues 419-487 (UDM2); source: E. coli Rosetta (DE3), purified (Glutathione Sepharose)) EETEINFTQKLIDLEHLLFERHKQEEQDRLLALQLQKEVDKEQMVPNRQKGSPDEYHLRATSSPPDKVL",
    "Kd": "238 µM"
  }
]
